target: PpADT-Gmut^103; test: Inhibition of PDT activity by Phe, mutant enzyme; type: biochemical, Pinus pinaster; conditions: read-out: IC50 (μM) for Phe; PDT reaction, 1 mM of substrate (Ppa); Asn324→Ser
MEASURED METRIC: IC50

[[record]]
compound = "N[C@@H](Cc1ccccc1)C(=O)O [Phe, phenylalanine]"
measured_metric = "IC50"
reported_measurement = "234 µM"


---

target: PpADT-G; test: Inhibition of PDT activity by Phe, recombinant enzyme; assay type: biochemical, Pinus pinaster; details: read-out: PDT IC50 (μM of Phe), 1 mM of Ppa
MEASURED METRIC: IC50

[[record]]
query_smiles = "N[C@@H](Cc1ccccc1)C(=O)O"
reported_measurement = "47.7 µM"


Data origin, for the record: paper PMC8774845
